System: Candida albicans
Assay: Antifungal activity against Candida albicans ATCC 76615 after 24 hrs by NCCLS two fold broth microdilution method
Type: functional
Settings: ATCC 76615, 24 h
Reported Property: MIC (µg/mL)
Report as a plain number; the unit µg/mL is understood.

### Prompt Form field: reported MIC of `CCCCCCCCn1c(CS(=O)(=O)c2ccc(N)cc2)nc2ccccc21`
### Response 64

### Prompt Form field: reported MIC of `CCCCCCCCCCCCn1c(CS(=O)(=O)c2ccc(NC(C)=O)cc2)nc2ccccc21`
### Response 512

### Prompt Form field: reported MIC of `Nc1ccc(S(=O)(=O)Cc2nc3ccccc3n2Cc2ccccc2Cl)cc1`
### Response 16
